Item-by-item account of Number of times sequence was found, Round 3
target: Tag-xPSM (Homo sapiens, UniProt Q04609); construct: made in house; host or cells: Sf-9 insect cells infected with recombinant baculovirus; protein harvested from the media; test: Tag-xPSM phage display selection (agarose/cellulose), sequencing of selected phage; type: binding; details: Agarose
Sequence (Q04609 44-750 limits assumed): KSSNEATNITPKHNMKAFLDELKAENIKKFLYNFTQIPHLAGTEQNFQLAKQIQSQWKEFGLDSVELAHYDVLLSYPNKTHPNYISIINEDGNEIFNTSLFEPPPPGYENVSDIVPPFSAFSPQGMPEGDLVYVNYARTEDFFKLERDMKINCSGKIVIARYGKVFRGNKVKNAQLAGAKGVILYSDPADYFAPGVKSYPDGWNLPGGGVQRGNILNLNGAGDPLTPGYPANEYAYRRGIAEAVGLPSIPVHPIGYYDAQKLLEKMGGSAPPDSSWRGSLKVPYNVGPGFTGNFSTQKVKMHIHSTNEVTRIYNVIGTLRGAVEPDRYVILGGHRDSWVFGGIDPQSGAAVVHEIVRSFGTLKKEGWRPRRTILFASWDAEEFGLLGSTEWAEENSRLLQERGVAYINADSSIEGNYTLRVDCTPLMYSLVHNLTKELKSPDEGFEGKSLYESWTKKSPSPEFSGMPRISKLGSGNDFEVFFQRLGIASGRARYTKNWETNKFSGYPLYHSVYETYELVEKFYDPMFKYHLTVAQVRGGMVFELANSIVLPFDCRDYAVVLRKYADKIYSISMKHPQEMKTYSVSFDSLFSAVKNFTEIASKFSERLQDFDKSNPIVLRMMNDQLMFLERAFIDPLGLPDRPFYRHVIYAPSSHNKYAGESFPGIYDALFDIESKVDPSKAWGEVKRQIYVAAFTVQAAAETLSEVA

Example sequences with recorded Number of times sequence was found, Round 3:
Biosequence	Endpoint value
CHTKHASHC [SEQ ID NO:6]	0/0
CTLVPHTRC [SEQ ID NO:3]	0/0
CKPSMMSYC [SEQ ID NO:8]	0/0
CTSNNSAIC [SEQ ID NO:27]	0
CTITSKRTC [SEQ ID NO:2]	0
CGLPTRTAC [SEQ ID NO:16]	0/0

For this sequence ( CHKFQSKMC [SEQ ID NO:17] ), measured Number of times sequence was found, Round 3 is 0/0

For this sequence ( CQTPYDLRC [SEQ ID NO:10] ), measured Number of times sequence was found, Round 3 is 0/0

For this sequence ( CPIMLSEPC [SEQ ID NO:26] ), measured Number of times sequence was found, Round 3 is 1

For this sequence ( CSSHSTVHC [SEQ ID NO:7] ), measured Number of times sequence was found, Round 3 is 0/0

For this sequence ( CTNSNMHHC [SEQ ID NO:22] ), measured Number of times sequence was found, Round 3 is 1

====

biological target: Tag-xPSM (Homo sapiens, UniProt Q04609); construct: made in house; host or cells: Sf-9 insect cells infected with recombinant baculovirus; protein harvested from the media; experiment: Tag-xPSM phage display selection (agarose/cellulose), sequencing of selected phage; format: binding; details: Cellulose
Item-by-item account of Number of times sequence was found, Round 5

Biosequence	Endpoint value
CQFRHSAQC [SEQ ID NO:23]	0/0
CSSHSTVHC [SEQ ID NO:7]	1
CLKSHSHQC [SEQ ID NO:15]	0/0
CTNSNMHHC [SEQ ID NO:22]	0/0
CTLVPHTRC [SEQ ID NO:3]	2
CPSVNTKQC [SEQ ID NO:9]	1
CPIMLSEPC [SEQ ID NO:26]	0/0

--- query ---
Record CTPLSPRYC [SEQ ID NO:12] ; system Tag-xPSM (Homo sapiens, UniProt Q04609); Number of times sequence was found, Round 5 = 0/0

====

target: Tag-xPSM (Homo sapiens, UniProt Q04609); construct: made in house; host or cells: Sf-9 insect cells infected with recombinant baculovirus; protein harvested from the media; experiment: Tag-xPSM phage display selection (agarose/cellulose), sequencing of selected phage; assay type: binding; conditions: Agarose
Readout name: Number of times sequence was found, Round 5

Example sequences with recorded Number of times sequence was found, Round 5:
Biosequence	Endpoint value
CHTSLKTHC [SEQ ID NO:14]	0/0
CSHNDTRHC [SEQ ID NO:4]	0
CQFRHSAQC [SEQ ID NO:23]	0/0
CTSNNSAIC [SEQ ID NO:27]	0/0
CAPNKYKHC [SEQ ID NO:11]	0/0

--- query ---
For this sequence ( CLSTTISYC [SEQ ID NO:21] ), measured Number of times sequence was found, Round 5 is 0/0

====

molecular target: Tag-xPSM (Homo sapiens); construct: made in house; host or cells: Sf-9 insect cells infected with recombinant baculovirus; protein harvested from the media; assay: Tag-xPSM phage display selection (agarose/cellulose), sequencing of selected phage; format: binding; conditions: Cellulose
Readout name: Number of times sequence was found, Round 3

Example sequences with recorded Number of times sequence was found, Round 3:
Biosequence	Endpoint value
CAPNKYKHC [SEQ ID NO:11]	0/0
CTPLSPRYC [SEQ ID NO:12]	0/0
CHKFQSKMC [SEQ ID NO:17]	0/0

--- query ---
For this sequence ( CTSNNSAIC [SEQ ID NO:27] ), measured Number of times sequence was found, Round 3 is 1
